Assay Target: UniProt:P21453
Sequence (P21453 whole entry): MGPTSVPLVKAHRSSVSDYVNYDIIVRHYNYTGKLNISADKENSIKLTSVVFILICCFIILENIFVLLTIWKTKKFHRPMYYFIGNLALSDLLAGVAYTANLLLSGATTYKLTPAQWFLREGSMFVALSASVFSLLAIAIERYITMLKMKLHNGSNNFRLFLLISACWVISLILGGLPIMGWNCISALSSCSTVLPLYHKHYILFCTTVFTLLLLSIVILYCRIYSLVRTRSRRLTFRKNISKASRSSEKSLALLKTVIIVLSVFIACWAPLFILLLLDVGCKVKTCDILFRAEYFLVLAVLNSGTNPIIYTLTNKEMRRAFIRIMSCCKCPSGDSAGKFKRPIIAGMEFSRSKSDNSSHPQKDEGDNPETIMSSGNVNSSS
Procedure Details: Tango β-arrestin recruitment assay, Tango-hS1P1-CHO
Details: final concentration 45 µM, 9 serial dilutions at 5-fold intervals; 20 h drug treatment; luciferase readout
Text: The Tango assay detects ligand-dependent GPCR activity through the interaction between β-arrestin and GPCRs. […] The NTEV fragment and the tetracycline transactivator (tTA), an artificial transcription factor, are fused at the C-terminus of the GPCR, while the CTEV fragment is fused to human β-arrestin 2. […] The released tTA initiates tTA-dependent luciferase transcription, and compound activity is ultimately determined by measuring luminescence intensity. […]
Readout Type: EC50 (nM)

INSERT INTO measurements (compound, reading_unit, numeric_value) VALUES
  ('CCc1cc(/C(C)=N/OCc2ccc(OC(C)C)c(C#N)c2)ccc1CN1CC(C(=O)O)C1', 'nM', 23.2);

P = C/C(=N\OCc1ccc(C2CCCCC2)c(C(F)(F)F)c1)c1ccc(CN2CC(C(=O)O)C2)c(C)c1
Q = CCc1cc(/C(C)=N/OCc2ccc(-c3cnc(F)cn3)c(C)c2)ccc1CN1CC(C(=O)O)C1
R = C/C(=N\OCc1ccc(C2CCCCC2)c(C(F)(F)F)c1)c1ccc(CN2CC(C(=O)O)C2)c(C(F)(F)F)c1
S = CCc1cc(/C(C)=N/OCc2ccc(C3CCCCC3)c(C(F)(F)F)c2)ccc1CN1CC(C(=O)O)C1 [BAF312, reference compound]
T = CCc1cc(/C(C)=N/OCc2cc(C)c(-c3cnc(F)cn3)cc2F)ccc1CN1CC[C@H](C(=O)O)C1
### Prompt Order the 5 compounds from highest to lowest EC50. Please, when replying, give the labels in the order that was requested.
### Response T, Q, R, P, S

---

Assay Target: hS1P4 (Homo sapiens)
Sequence (O95977 1-384): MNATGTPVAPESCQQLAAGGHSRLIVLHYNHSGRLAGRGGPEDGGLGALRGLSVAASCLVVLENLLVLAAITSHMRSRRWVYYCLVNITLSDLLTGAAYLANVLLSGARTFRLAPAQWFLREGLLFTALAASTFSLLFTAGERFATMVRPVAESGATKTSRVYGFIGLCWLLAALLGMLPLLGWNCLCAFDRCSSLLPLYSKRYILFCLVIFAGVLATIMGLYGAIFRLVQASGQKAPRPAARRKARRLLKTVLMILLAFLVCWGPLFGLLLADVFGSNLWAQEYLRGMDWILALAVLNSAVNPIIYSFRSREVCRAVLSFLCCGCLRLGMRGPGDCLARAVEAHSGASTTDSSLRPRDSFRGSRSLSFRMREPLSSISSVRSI
Procedure Details: Tango β-arrestin recruitment assay, Tango-hS1P4-CHO
Details: final concentration 45 µM, 9 serial dilutions at 5-fold intervals; 20 h drug treatment; luciferase readout
pEC50: −log10 of the molar value.
Readout Type: pEC50

Below are worked cases with known answers.
INSERT INTO results (compound, readout_type, numeric_value) VALUES
  ('CCc1cc(/C(C)=N/OCc2ccc(-c3cnc(F)cn3)c(C)c2)ccc1CN1CCC(C(=O)O)C1 (centres unmarked) [Compound 4]', 'pEC50', 7.98),
  ('C/C(=N\OCc1ccc(C2CCCCC2)c(C(F)(F)F)c1)c1ccc(CN2CC(C(=O)O)C2)c(C)c1 [Compound 18]', 'pEC50', 6.57),
  ('C/C(=N\OCc1ccc(C2CCCCC2)c(C(F)(F)F)c1)c1ccc(CNCCC(=O)O)cc1 [Compound 10]', 'pEC50', 6.58),
  ('CCc1cc(/C(C)=N/OCc2ccc(-c3cncnc3C)c(C)c2)ccc1CN1CC[C@H](C(=O)O)C1 [Compound 83]', 'pEC50', 7.39),
  ('CCc1cc(/C(C)=N/OCc2ccc(-c3cnsc3)cc2)ccc1CN1CC[C@H](C(=O)O)C1 [Compound 74]', 'pEC50', 7.88),
  ('CCc1cc(/C(C)=N/OCc2ccc(-c3cnc(F)cn3)c(C)c2)ccc1CN1CC[C@@H](C(=O)O)C1 [Compound 95]', 'pEC50', 7.12);

a = CCc1cc(/C(C)=N/OCc2ccc(-c3cccs3)cc2)ccc1CN1CC[C@H](C(=O)O)C1 [Compound 73]
b = CCc1cc(/C(C)=N/OCc2ccc(-c3ccns3)cc2)ccc1CN1CC[C@H](C(=O)O)C1 [Compound 75]
### Prompt Hi team, can someone confirm which has the larger pEC50: a or b ? Thanks. Reply with the label of the item you choose.
### Response a

a = CCc1cc(/C(C)=N/OCc2ccc(-c3cnc(F)cn3)c(C)c2F)ccc1CN1CC[C@H](C(=O)O)C1 [Compound 93]
b = CCc1cc(/C(C)=N/OCc2ccc3ccccc3c2)ccc1CN1CC(C(=O)O)C1 [Compound 15]
c = CCc1cc(/C(C)=N/OCc2ccc(-c3cnc(F)cn3)cc2)ccc1CN1CC[C@H](C(=O)O)C1 [Compound 89]
### Prompt Order by pEC50, ascending. Please, when replying, give the labels in the order that was requested.
### Response b, c, a

a = CCc1cc(/C(C)=N/OCc2cc(C)c(-c3cnc(F)cn3)cc2F)ccc1CN1CC[C@H](C(=O)O)C1 [Compound 94]
b = CCc1cc(/C(C)=N/OCc2ccc(-c3cnc(F)cn3)c(F)c2)ccc1CN1CC[C@H](C(=O)O)C1 [Compound 88]
### Prompt Hey, which is lower on measured pEC50, a or b ? Reply with the label of the item you choose.
### Response b

P = C/C(=N\OCc1ccc(C2CCCCC2)c(C(F)(F)F)c1)c1ccc(CN2CC(C(=O)O)C2)c(F)c1 [Compound 11]
Q = CCc1cc(/C(C)=N/OCc2ccc(-c3cnc(F)nc3)c(C)c2)ccc1CN1CC[C@H](C(=O)O)C1 [Compound 80]
### Prompt Hi team, can someone confirm which has the larger pEC50: P or Q ? Thanks. Reply with the label of the item you choose.
### Response Q

P = CCc1cc(/C(C)=N/OCc2ccc(-c3cncnc3)cc2)ccc1CN1CC[C@H](C(=O)O)C1 [Compound 70]
Q = C/C(=N\OCc1ccc(C2CCCCC2)c(C(F)(F)F)c1)c1ccc(CN2CC(C(=O)O)C2)c(C(F)(F)F)c1 [Compound 19]
### Prompt Hey, which is lower on measured pEC50, P or Q ? Reply with the label of the item you choose.
### Response Q
(Q: 6.25, P: 7.44)
